tested on: mice; assay: Neuropharmacological assay (SmartCube), behavioral signature of compound-treated mice; assay type: in vivo; settings: i.p. 15 min before behavioral test, most efficacious dose(s) of 3 doses
attribute.measured: CE: cognitive enhancer (probability that behavioral signature matches class)

# count of solved cases: 5
| molecule | result.value |
| --- | --- |
| Fc1ccc2c(c1)CCO[C@H]2[C@@H]1COCCN1 [Compound I-78] | ++ (5% ≤ ++ <25%) |
| c1cc2c(c3c1CCO[C@@H]3[C@@H]1CCCN1)OCO2 [Compound I-51] | + (LOQ ≤ + <5%) |
| FC1(F)CO[C@@H]([C@@H]2CCCN2)c2ccccc21 [Compound I-140] | +++ (25% ≤ +++ <50%) |
| Clc1ccc2c(c1)CCO[C@H]2[C@@H]1CCCN1 [Compound I-34] | ++ (5% ≤ ++ <25%) |
| c1ccc2c(c1)CCO[C@@H]2C1CNC1 [Compound I-114, (R)-3-(isochroman-1-yl)azetidine] | ++ (5% ≤ ++ <25%) |

Exercise: Which CE: cognitive enhancer (probability that behavioral signature matches class) is reported with mice for this entry: Fc1ccc2c(c1)CCO[C@@H]2[C@@H]1CCCCN1 [Compound I-73] ?
Key: ++ (5% ≤ ++ <25%)

Exercise: Which CE: cognitive enhancer (probability that behavioral signature matches class) is reported with mice for this entry: CC1(C)CN[C@@H]([C@@H]2OCCc3ccccc32)C1 [Compound I-61] ?
Key: + (LOQ ≤ + <5%)

Exercise: Which CE: cognitive enhancer (probability that behavioral signature matches class) is reported with mice for this entry: c1ccc2c(c1)CCCO[C@@H]2[C@@H]1CCCN1 [Compound I-97] ?
Key: ++ (5% ≤ ++ <25%)
